Test system: ALP in normal human articular chondrocytes (NHACs)
Assay: Alkaline Phosphatase (ALP) activity assay (staining and quantitation) in NHACs, prevention of chondrocyte hypertrophy
Type: cell-based
Details: Chondrocyte, 288 h, value in parentheses, human IL-1 beta 10 ng/mL, 12 days, read-out: ALP in NHAC (% Efficacy)
Form field: Emax (one value per entry).
Respond with the bare value in %.

The cases that follow already have their Emax on record.
[[record]]
molecule = "CC(C)n1cc([C@H]2[C@H]3O[C@H](C[C@@H]3O)[C@@H]2C(=O)Nc2ccc(C(F)(F)F)c(Cl)c2)c(C(F)(F)F)n1 (racemic)"
readout_units = "%"
readout_number = 64

[[record]]
molecule = "COc1ccc(NC(=O)[C@@H]2[C@@H](c3cn(C)nc3C(F)(F)F)[C@H]3O[C@@H]2C[C@@H]3O)cc1C(F)(F)F (racemic)"
readout_units = "%"
readout_number = 102

[[record]]
molecule = "Cn1nc(C(F)(F)F)cc1[C@H]1[C@H]2O[C@H](C[C@@H]2O)[C@@H]1C(=O)Nc1ccc(C(F)(F)F)cc1 (racemic)"
readout_units = "%"
readout_number = 73


query: Can you look up Emax on ALP in normal human articular chondrocytes (NHACs) for Cc1ccc(NC(=O)[C@@H]2[C@@H](c3ccnc(C(F)(F)F)c3)[C@H]3O[C@@H]2C[C@@H]3O)cc1C(F)(F)F (racemic) ?
result: 83

query: Can you look up Emax on ALP in normal human articular chondrocytes (NHACs) for O=C(Nc1cc(C(F)(F)F)c(Cl)cn1)[C@@H]1[C@@H](c2cccc(C(F)(F)F)c2)[C@H]2O[C@@H]1C[C@@H]2O (racemic) ?
result: 38

query: Can you look up Emax on ALP in normal human articular chondrocytes (NHACs) for O=C(Nc1cccc(C(F)(F)F)c1)[C@@H]1[C@@H](c2ccc(C(F)(F)F)nc2)[C@H]2O[C@@H]1C[C@@H]2O (racemic) ?
result: 78

query: Can you look up Emax on ALP in normal human articular chondrocytes (NHACs) for O=C(Nc1ccc(C(F)(F)F)cn1)[C@@H]1[C@@H](c2cccc(C(F)(F)F)c2)[C@H]2O[C@@H]1C[C@@H]2O (racemic) ?
result: 112

query: Can you look up Emax on ALP in normal human articular chondrocytes (NHACs) for Cn1cc([C@H]2[C@H]3O[C@H](C[C@@H]3O)[C@@H]2C(=O)Nc2cc(F)cc(C(F)(F)F)c2)c(C(F)(F)F)n1 (racemic) ?
result: 61

query: Can you look up Emax on ALP in normal human articular chondrocytes (NHACs) for COc1cc([C@H]2[C@H]3O[C@H](C[C@@H]3O)[C@@H]2C(=O)Nc2cc(C)cc(C(F)(F)F)c2)ccn1 (racemic) ?
result: 29

query: Can you look up Emax on ALP in normal human articular chondrocytes (NHACs) for CCOc1ccc(NC(=O)[C@@H]2[C@@H](c3cn(C)nc3C(F)(F)F)[C@H]3O[C@@H]2C[C@@H]3O)cc1C(F)(F)F (racemic) ?
result: 89

query: Can you look up Emax on ALP in normal human articular chondrocytes (NHACs) for O=C(Nc1cc(C(F)(F)F)cc(Cl)n1)[C@@H]1[C@@H](c2cccc(C(F)(F)F)c2)[C@H]2O[C@@H]1C[C@@H]2O (racemic) ?
result: 82

query: Can you look up Emax on ALP in normal human articular chondrocytes (NHACs) for Cn1nc(C(F)(F)F)cc1[C@H]1[C@H]2O[C@H](C[C@@H]2O)[C@@H]1C(=O)Nc1ccc(C(F)(F)F)c(Cl)c1 (racemic) ?
result: 105

query: Can you look up Emax on ALP in normal human articular chondrocytes (NHACs) for Cn1cc([C@H]2[C@H]3O[C@H](C[C@@H]3O)[C@@H]2C(=O)Nc2cc(C(F)(F)F)c(Cl)cn2)c(C(F)(F)F)n1 (racemic) ?
result: 92

----------
Form field: pIC50 (one value per entry).
Target: ALP in normal human articular chondrocytes (NHACs)
Experiment: Alkaline Phosphatase (ALP) activity assay (staining and quantitation) in NHACs, prevention of chondrocyte hypertrophy
Assay type: cell-based
Conditions: human IL-1 beta 10 ng/mL, 12 days, Fast Blue RR staining, high content imaging, read-out: ALP in NHAC IC50
A value of pIC50 is the negative decimal logarithm of a concentration given in moles per litre.

The cases that follow already have their pIC50 on record.
[[record]]
molecule = "COc1cc([C@@H]2[C@@H]3O[C@@H](C[C@H]3O)[C@H]2C(=O)Nc2cc(C(F)(F)F)ccc2C#N)ccn1 (single isomer, unassigned) [Example 78b]"
measurement_label = "pIC50"
readout_number = 5.85

[[record]]
molecule = "COc1ccc(C(F)(F)F)cc1NC(=O)[C@H]1[C@H](c2cn(C)nc2C(F)(F)F)[C@@H]2O[C@H]1C[C@H]2O (single isomer, unassigned) [Example 33a]"
measurement_label = "pIC50"
readout_number = 5.18


query: // pIC50 lookup, key: N#Cc1ccc(C(F)(F)F)cc1NC(=O)[C@@H]1[C@@H](c2cccc(C(F)(F)F)c2)[C@H]2O[C@@H]1C[C@@H]2O (single isomer, unassigned) [Example 48a]
result: 5.82

----------
Form field: IC50 (one value per entry).
Tested on: ALP in normal human articular chondrocytes (NHACs)
Assay: Alkaline Phosphatase (ALP) activity assay (staining and quantitation) in NHACs, prevention of chondrocyte hypertrophy
Assay type: cell-based
Details: Chondrocyte, 288 h, human IL-1 beta 10 ng/mL, 12 days, Fast Blue RR staining, high content imaging, read-out: ALP in NHAC IC50
Respond with the bare value in µM.

The cases that follow already have their IC50 on record.
[[record]]
molecule = "Cc1ccc(NC(=O)[C@@H]2[C@@H](c3cccc(C(F)(F)F)c3)[C@H]3O[C@@H]2C[C@@H]3O)cc1C(F)(F)F (racemic)"
readout_units = "µM"
readout_number = 9.8

[[record]]
molecule = "N#Cc1ccc(NC(=O)[C@@H]2[C@@H](c3cccc(C(F)(F)F)c3)[C@H]3O[C@@H]2C[C@@H]3O)cc1C(F)(F)F (racemic)"
readout_units = "µM"
readout_number = 14


query: // IC50 lookup, key: COc1ccc(C(F)(F)F)cc1NC(=O)[C@@H]1[C@@H](c2cn(C)nc2C(F)(F)F)[C@H]2O[C@@H]1C[C@@H]2O (racemic)
result: 2.8

----------
Tested on: ALP in normal human articular chondrocytes (NHACs)
Assay: Alkaline Phosphatase (ALP) activity assay (staining and quantitation) in NHACs, prevention of chondrocyte hypertrophy
Type: cell-based
Settings: Chondrocyte, 288 h, human IL-1 beta 10 ng/mL, 12 days, Fast Blue RR staining, high content imaging, read-out: ALP in NHAC IC50
Form field: IC50 (one value per entry).
Respond with the bare value in µM.

The cases that follow already have their IC50 on record.
[[record]]
compound = "CCOc1cc(C(F)(F)F)cc(NC(=O)[C@@H]2[C@@H](c3cn(C)nc3C(F)(F)F)[C@H]3O[C@@H]2C[C@@H]3O)n1 (racemic) [Example 39]"
measurement_label = "IC50"
readout_number = 4

[[record]]
compound = "COc1ccc(C(F)(F)F)cc1NC(=O)[C@@H]1[C@@H](c2cccc(C(F)(F)F)c2)[C@H]2O[C@@H]1C[C@@H]2O (racemic) [Example 22]"
measurement_label = "IC50"
readout_number = 27


query: // IC50 lookup, key: Cn1cc([C@H]2[C@H]3O[C@H](C[C@@H]3O)[C@@H]2C(=O)Nc2cc(C(F)(F)F)ccc2F)c(C(F)(F)F)n1 (racemic) [Example 52]
result: 4.2

query: // IC50 lookup, key: O=C(Nc1cccc(C(F)(F)F)c1)[C@@H]1[C@@H](c2ccnc(F)c2)[C@H]2O[C@@H]1C[C@@H]2O (racemic) [Example 80]
result: 23

query: // IC50 lookup, key: Cn1cc([C@H]2[C@H]3O[C@H](C[C@@H]3O)[C@@H]2C(=O)Nc2ccc(C(F)(F)F)c(F)c2)c(C(F)(F)F)n1 (racemic) [Example 55]
result: 16

----------
Tested on: ALP in normal human articular chondrocytes (NHACs)
Assay: Alkaline Phosphatase (ALP) activity assay (staining and quantitation) in NHACs, prevention of chondrocyte hypertrophy
Format: cell-based
Details: Chondrocyte, 288 h, value in parentheses, human IL-1 beta 10 ng/mL, 12 days, read-out: ALP in NHAC (% Efficacy)
Protocol: The compounds of the present invention were evaluated in the Alkaline Phosphatase (ALP) activity assay to determine the ability of the compounds to prevent chondrocyte hypertrophy in normal human articular chondrocytes (NHACs). […] The staining was imaged by fluorescent microscopy, using the 561 nm wavelength, and/or quantified by high content imaging with the Image press Confocal (Molecular Devices, Sunnyvale, Calif.). […]
measurement label: Emax (%)
Respond with the bare value in %.

[[record]]
molecule = "COc1cc([C@H]2[C@H]3O[C@H](C[C@@H]3O)[C@@H]2C(=O)Nc2ccc(C)c(C(F)(F)F)c2)ccn1 (racemic)"
readout_units = "%"
readout_number = 31

[[record]]
molecule = "Cc1cc(NC(=O)[C@@H]2[C@@H](c3cccc(C(F)(F)F)c3)[C@H]3O[C@@H]2C[C@@H]3O)cnc1C(F)(F)F (racemic)"
readout_units = "%"
readout_number = 98


query: // Emax lookup, key: O=C(Nc1cccc(C(F)(F)F)c1)[C@@H]1[C@@H](c2ccnc(C(F)(F)F)c2)[C@H]2O[C@@H]1C[C@@H]2O (racemic)
result: 44

This collection of values is drawn from patent US12257243B2.
